Each item that follows carries a reported pIC50.
Tested on: BxPC3 human pancreatic adenocarcinoma cells
Experiment: Cell proliferation assay with Alamar Blue (AB), BxPC3
Type: cell-based
Conditions: Homo sapiens, BXPC-3, read-out: AB: BxPC3
pIC50: −log10 of the molar value.

Worked set:
CN(C)C1CCN(C(=O)c2cccc(Nc3cc(Nc4cccc(Cl)c4)nc4c(/C=C5\NC(=O)NC5=O)cnn34)c2)C1 (stereo not drawn) [Example C7] :: < 4.52
CCS(=O)(=O)Nc1cccc(-c2cc(NC3CC3)n3ncc(/C=C4\NC(=O)NC4=O)c3n2)c1 [Example X4] :: < 4.52

input: What does the data say about its pIC50? Entry: CC1CN(C(C)c2cccc(Nc3cc(NC4CC4)n4ncc(/C=C5\NC(=O)NC5=O)c4n3)c2)CC(C)O1 (stereo not drawn) [Example G1]
output: < 4.52

###

// CK2 ααββ (Homo sapiens (Human), UniProt P68400) pIC50 records
pIC50: −log10 of the molar value.

input: Recorded pIC50 for `O=C1NC(=O)/C(=C/c2cnn3c(NC4CCN(C(=O)C5CC5)CC4)cc(Nc4cccc(Cl)c4)nc23)N1` with CK2 ααββ (Homo sapiens (Human), UniProt P68400), please?
output: > 8.00

input: What about this compound? `O=C1NC(=O)/C(=C/c2cnn3c(NC4CC4)cc(-c4cccc(C(F)(F)F)c4)nc23)N1`
output: > 8.00

input: What about this compound? `O=C1NC(=O)/C(=C/c2cnn3c(NCC4CC4)cc(Nc4cccnc4)nc23)N1`
output: > 7.00

input: What about this compound? `O=C1NC(=O)/C(=C/c2cnn3c(NC4CC4)cc(-c4ccc(F)c(C(=O)NCCN5CCCC5)c4)nc23)N1`
output: > 7.00

input: What about this compound? `CC(C)(C)OC(=O)N1CCN(C(=O)c2cccc(Nc3cc(Nc4cccc(Cl)c4)nc4c(/C=C5\NC(=O)NC5=O)cnn34)c2)CC1`
output: > 8.00

###

// CK2 ααββ (Homo sapiens (Human), UniProt P68400) IC50 records

Worked set:
O=C1NC(=O)/C(=C/c2cnn3c(NC4CC4)cc(-c4cccc(NS(=O)(=O)C5CC5)c4)nc23)N1 [Example Z4] :: < 10 nM
O=C1NC(=O)/C(=C/c2cnn3c(SCc4ccccc4)cc(-c4cccc(Cl)c4)nc23)N1 [Example Y5] :: < 1000 nM
O=C1NC(=O)/C(=C/c2cnn3c(NCC4(CN5CCCC5)CC4)cc(Nc4cccc(Cl)c4)nc23)N1 [Example A7] :: < 100 nM
O=C1NC(=O)/C(=C/c2cnn3c(NCCO)cc(Nc4cccc(Cl)c4)nc23)N1 [Example D6] :: < 1000 nM
CC(C)N1CCN(C(=O)c2cc(-c3cc(NC4CC4)n4ncc(/C=C5\NC(=O)NC5=O)c4n3)ccc2F)CC1 [Example D5] :: < 100 nM

input: What does the data say about its IC50? Entry: O=C1NC(=O)/C(=C/c2cnn3c(NCc4ccncc4)cc(Nc4cccc(Cl)c4)nc23)N1 [Example E6]
output: < 1000 nM

input: What about this molecule? O=C1NC(=O)/C(=C/c2cnn3c(NC4CC4)cc(Nc4cc(F)cc(F)c4)nc23)N1 [Example N1]
output: < 10 nM

input: What about this molecule? CC(O)CNc1cc(NC2CC2)n2ncc(/C=C3\SC(=O)NC3=O)c2n1 (stereo not drawn) [Example H3]
output: < 1000 nM

input: What about this molecule? O=C1NC(=O)/C(=C/c2cnn3c(NC4CC4)cc(NN4CCOCC4)nc23)N1 [Example S2]
output: < 10 nM

Data provenance: patent US9303033B2
